# Protocol Notes: Viability (viabilita) used to normalise caspase activity;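 note: compound tested at 100 nM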
# Assay type: cell-based, human
# Applied Conditions: human, MCF-7 cells, 72 hodin; kontrola = 100
Catalogue of viability at 72 h, 100 nM values
Response body: numeric value in %, unit text excluded.

Observe how each entry below is paired with its result.
Field viability at 72 h, 100 nM (entry "CCNC(=O)NN=C(c1ccccc1)c1ccccn1" ) reads 93.5

Form: compound = "CCN=CNN=C(c1ccccc1)c1ccccn1" ; viability at 72 h, 100 nM = 93

Further cases:
Recorded viability at 72 h, 100 nM (compound "CCNC(=S)NN=C(c1ccccc1)c1ccccn1" ): 27.1

----------
Each entry below carries its reported kaspáza 9, % kontroly.
# Test system: caspase 9
# Protocol Notes: Caspase activity, luminescent kit, caspase 9;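 note: MCF-7 cells treated at 100 nM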
# Assay type: cell-based, human
# Applied Conditions: 72 hodin; mean, normalised to viability
// note: answer is a bare numeric in % kontroly

Before answering, review these 3 worked examples.
Value of measured kaspáza 9, % kontroly for the entry CCNC(=O)NN=C(c1ccccc1)c1ccccn1 [E-Bp4eS, 2-benzoylpyridine 4-ethylsemicarbazone] : 104.60

For reference, reported kaspáza 9, % kontroly for CCNC(=O)NN=C(c1ccccc1)c1ccccn1 [Z-Bp4eS, 2-benzoylpyridine 4-ethylsemicarbazone] stands at 100.13

// recorded kaspáza 9, % kontroly for CCN=CNN=C(c1ccccc1)c1ccccn1 [Bp4eA] : 106.51

Next:
In plain terms, CCNC(=S)NN=C(c1ccccc1)c1ccccn1 [Bp4eT] has a documented kaspáza 9, % kontroly of 249.26

----------
# System: labile iron pool of MCF-7 cells
# Protocol Notes: Calcein-AM assay, access to the labile iron pool
# Type: cell-based, human
# Design: unit not given here
# Applied Conditions: 10 μM, 300 sec, mean (průměr)
Each item that follows carries a reported Calcein fluorescence.
Give your answer as a number; write no unit.

Here is how some compounds turned out for Calcein fluorescence.
The measured Calcein fluorescence associated with CCNC(=O)NN=C(c1ccccc1)c1ccccn1 [Z-Bp4eS, 2-benzoylpyridine 4-ethylsemicarbazone] reads 1.225

Please fill in: Calcein fluorescence reported for CCNC(=O)NN=C(c1ccccc1)c1ccccn1 [E-Bp4eS, 2-benzoylpyridine 4-ethylsemicarbazone] = 0.000

Record "CCN=CNN=C(c1ccccc1)c1ccccn1" . Reported Calcein fluorescence: 13.356

Next:
In plain terms, "CCNC(=S)NN=C(c1ccccc1)c1ccccn1" has a documented Calcein fluorescence of 146.135

----------
# Tested on: H9c2 cardiomyoblasts
# Protocol Notes: MTT cytotoxicity assay, H9c2 cells
# Format: cell-based, rat
# Applied Conditions: H9c2, 72 h/37°C, MTT; mean ± SD, n ≥ 4; read-out: IC50
# Method: For cytotoxicity experiments, cancer cells were seeded at a density of 5,000 (MCF-7), 10,000 (HL-60) or 2,000 cells/well (HCT116 and A549) in 96-well plates (TPP) for 24 h/37°C prior to the addition of examined agents. […] The viability of cells were determined using an MTT assay (Sigma-Aldrich) according to previously established methods. […] The viability or proliferation of experimental groups was expressed as a percentage of the untreated controls (100%). […]
Recorded IC50, one value per entry.
Answer format: numeric, µM implied, no suffix.

Record CCNC(=O)NN=C(c1ccccc1)c1ccccn1 [E-Bp4eS, 2-benzoylpyridine 4-ethylsemicarbazone] , field IC50: 884

Record summary for CCNC(=O)NN=C(c1ccccc1)c1ccccn1 [Z-Bp4eS, 2-benzoylpyridine 4-ethylsemicarbazone] : reported IC50 = 343

Entry under test: CCNC(=O)NN=C(c1ccccc1)c1ccccn1 [Bp4eS, 2-benzoylpyridine 4-ethylsemicarbazone] . Its IC50 was 343

----------
# System: caspase 8
# Protocol Notes: Caspase activity, luminescent kit, caspase 8;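 note: MCF-7 cells treated at 100 nM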
# Format: cell-based, human
# Applied Conditions: 72 hodin; mean
Value Type: kaspáza 8, raw signal, průměry
Please reply with the number alone, leaving off any unit.

Kindly note the recorded kaspáza 8, raw signal, průměry for CCN=CNN=C(c1ccccc1)c1ccccn1 [Bp4eA] , which is 6689.5

get_value(item= CCNC(=S)NN=C(c1ccccc1)c1ccccn1 [Bp4eT] , readout=kaspáza 8, raw signal, průměry) returns 3576.88

In plain terms, CCNC(=O)NN=C(c1ccccc1)c1ccccn1 [Z-Bp4eS, 2-benzoylpyridine 4-ethylsemicarbazone] has a documented kaspáza 8, raw signal, průměry of 6217.62

Continue with the next compound.
Record CCNC(=O)NN=C(c1ccccc1)c1ccccn1 [E-Bp4eS, 2-benzoylpyridine 4-ethylsemicarbazone] . Reported kaspáza 8, raw signal, průměry: 6700.75

----------
Items are presented alongside their recorded kaspáza 9, signal / viabilita, průměry.
# System: caspase 9
# Protocol Notes: Caspase activity, luminescent kit, caspase 9;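 note: MCF-7 cells treated at 100 nM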
# Assay type: cell-based, human
# Applied Conditions: 72 hodin; normalised to viability; mean
I'd appreciate a reply containing only the number, no unit.

# count of solved cases: 3
Value of kaspáza 9, signal / viabilita, průměry reported for the compound CCNC(=O)NN=C(c1ccccc1)c1ccccn1 [Z-Bp4eS, 2-benzoylpyridine 4-ethylsemicarbazone] is 215.348

Lab note: CCNC(=O)NN=C(c1ccccc1)c1ccccn1 [E-Bp4eS, 2-benzoylpyridine 4-ethylsemicarbazone] gave kaspáza 9, signal / viabilita, průměry of 227.53

kaspáza 9, signal / viabilita, průměry measured on "CCN=CNN=C(c1ccccc1)c1ccccn1" = 230.612

New cases:
Value of measured kaspáza 9, signal / viabilita, průměry for the entry "CCNC(=S)NN=C(c1ccccc1)c1ccccn1" : 539.724

----------
# Protocol Notes: MTT cytotoxicity assay, 3T3 cells
# Type: cell-based, mouse
# Applied Conditions: mouse, 3T3 mouse embryo fibroblasts, 3T3; 10 000 b/j; koncentrace 3000 nM; mean; read-out: MTT viability (0 = 100), průměr
Value Type: viability at 72 h, 3000 nM (%)
Field format: number, assumed %, no unit text.

Entry CCNC(=S)NN=C(c1ccccc1)c1ccccn1 [Bp4eT] — recorded viability at 72 h, 3000 nM = 40.5

----------
A collection of compounds and their measured kaspáza (3) a 7, % kontroly
# System: caspases 3/7
# Protocol Notes: Caspase activity, luminescent kit, caspases 3/7
# Type: cell-based, human
# Applied Conditions: 72 hodin; mean, normalised to viability
Give a bare numeral; the unit % kontroly is implied.

The examples below pair each entry with its known result.
Let me check: "CCN=CNN=C(c1ccccc1)c1ccccn1" , system caspases 3/7, measured kaspáza (3) a 7, % kontroly is 108.88

Param item: CCNC(=O)NN=C(c1ccccc1)c1ccccn1 [E-Bp4eS, 2-benzoylpyridine 4-ethylsemicarbazone] ; param system: caspases 3/7; output kaspáza (3) a 7, % kontroly: 107.49

Tested on caspases 3/7, the item CCNC(=O)NN=C(c1ccccc1)c1ccccn1 [Z-Bp4eS, 2-benzoylpyridine 4-ethylsemicarbazone] showed kaspáza (3) a 7, % kontroly equal to 104.65

***
The compound "CCNC(=S)NN=C(c1ccccc1)c1ccccn1" on caspases 3/7: kaspáza (3) a 7, % kontroly was 318.49

----------
# Tested on: HCT116 human colorectal carcinoma cells
# Protocol Notes: MTT cytotoxicity assay, HCT116 cells
# Type: cell-based
# Applied Conditions: Homo sapiens, HCT-116, HCT116; 2 000 b/j; MTT; single experiment (date); sheet Z-Bp4eS
Value Type: IC50 (µM)
Response body: numeric value in µM, unit text excluded.

Quick note, IC50 for "CCNC(=O)NN=C(c1ccccc1)c1ccccn1" landed at 272

----------
# Protocol Notes: Ascorbate oxidation assay (redox activity of iron complexes);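 note: IBE 1 means fully coordinated iron chelator complexes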
# Type: biochemical
# Applied Conditions: sheet IBE 1; time 30; mean of 9 readings
Each record here notes measured raw reading at čas 30 (time 30), průměr (mean).
Just the number, please, no unit after it.

Below, 2 molecules whose answers are already recorded.
Reported raw reading at čas 30 (time 30), průměr (mean) of "CCN=CNN=C(c1ccccc1)c1ccccn1" : 0.7216

Item: CCNC(=O)NN=C(c1ccccc1)c1ccccn1 [Z-Bp4eS, 2-benzoylpyridine 4-ethylsemicarbazone] | raw reading at čas 30 (time 30), průměr (mean): 0.7209

***
Sure, the documented raw reading at čas 30 (time 30), průměr (mean) for CCNC(=O)NN=C(c1ccccc1)c1ccccn1 [E-Bp4eS, 2-benzoylpyridine 4-ethylsemicarbazone] is 0.7192

Noted for CC(=O)N(O)CCCCCNC(=O)CCC(=O)N(O)CCCCCNC(=O)CCC(=O)N(O)CCCCCN [DFO, deferoxamine, reference compound] : its raw reading at čas 30 (time 30), průměr (mean) reads 0.8078

// field: raw reading at čas 30 (time 30), průměr (mean); key: O=C(O)CN(CCN(CC(=O)O)CC(=O)O)CC(=O)O [EDTA, reference compound] ; value = 0.3114

Data point: "CCNC(=S)NN=C(c1ccccc1)c1ccccn1" ; raw reading at čas 30 (time 30), průměr (mean) = 0.5639
